- Protocol Description: Log D by octanol-PBS partition
- Type: physicochemical
- Test Settings: DCM compounds
Observed Property: logD

See these solved cases before continuing.
N#CC(C#N)=C1C=C(/C=C/C=C/c2ccc(O)cc2)Oc2ccccc21 | 0.96
CN1CCN(C)CCN(Cc2cc(/C=C/C=C/C3=CC(=C(C#N)C#N)c4ccccc4O3)cc(CN3CCN(C)CCN(C)CC3)c2O)CC1 | 1.2
CN1CCN(C)CCN(Cc2cc(/C=C/C3=CC(=C(C#N)C#N)c4ccccc4O3)cc(CN3CCN(C)CCN(C)CC3)c2O)CC1 | 1.51
N#CC(C#N)=C1C=C(/C=C/c2ccc(O)cc2)Oc2ccccc21 | 1
CN1CCN(C)CCN(Cc2cc(/C=C/C=C/C3=CC(=C(C#N)C#N)c4ccccc4O3)ccc2O)CC1 | 1.13

Next compound, logD to be filled in.
Quick one: logD for CN1CCN(C)CCN(Cc2cc(/C=C/C3=CC(=C(C#N)C#N)c4ccccc4O3)ccc2O)CC1 ?
1.65

* * *

- Target System: Aβ42 oligomers (Homo sapiens, UniProt P05067)
- Construct: commercial Aβ42 monomer powder (from GL biochem); purchased GL biochem
- Sequence (P05067 672-713 limits assumed): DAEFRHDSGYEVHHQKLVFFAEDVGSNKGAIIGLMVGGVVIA
- Protocol Description: Fluorescence saturation binding assay with Aβ42 oligomers
- Test Settings: read-out: Kd value to Aβ42 oligomers
- Protocol: Aβ42 oligomers: The 0.5 mg monomeric films were dissolved in 1.1 mL PBS buffer (with final DMSO concentration less than 1%) and incubated at 4° C. overnight. […] Aβ42 oligomers concentration was checked by measuring the absorbance of the supernatant at 280 nm. In Vitro Saturation Binding Studies with Aβ42 Fibrils and Aβ42 Oligomers. […] Nonspecific binding was determined without compounds. […] All fluorescence data were obtained on a SpectraMax M2e plate reader (Molecular Devices). […]
Observed Property: Kd (nM)
Hi! Could you send only the number? It should be in nM, unit omitted.

Quick one: Kd for N#CC(C#N)=C1C=C(/C=C/C=C/c2ccc(O)cc2)Oc2ccccc21 ?
120

* * *

- Target System: Aβ42 fibrils (Homo sapiens)
- Construct: commercial Aβ42 monomer powder (from GL biochem); purchased GL biochem
- Sequence (P05067 672-713 limits assumed): as above
- Protocol Description: Fluorescence saturation binding assay with Aβ42 fibrils
- Test Settings: Table 3, DCM compounds; read-out: Kd, Fibrils
Observed Property: Kd (nM)
Hi! Could you send only the number? It should be in nM, unit omitted.

CN1CCN(C)CCN(Cc2cc(/C=C/C=C/C3=CC(=C(C#N)C#N)c4ccccc4O3)cc(CN3CCN(C)CCN(C)CC3)c2O)CC1 | 500

Quick one: Kd for CN1CCN(C)CCN(Cc2cc(/C=C/C=C/C3=CC(=C(C#N)C#N)c4ccccc4O3)ccc2O)CC1 ?
780

Quick one: Kd for CN1CCN(C)CCN(Cc2cc(/C=C/C3=CC(=C(C#N)C#N)c4ccccc4O3)ccc2O)CC1 ?
580

Quick one: Kd for CN1CCN(C)CCN(Cc2cc(/C=C/C3=CC(=C(C#N)C#N)c4ccccc4O3)cc(CN3CCN(C)CCN(C)CC3)c2O)CC1 ?
1850

* * *

- Target System: Aβ42 oligomers (Homo sapiens)
- Construct: commercial Aβ42 monomer powder (from GL biochem); purchased GL biochem
- Protocol Description: Fluorescence saturation binding assay with Aβ42 oligomers
- Test Settings: Table 3, DCM compounds; read-out: Kd, Oligomers
Item-by-item account of Kd
Hi! Could you send only the number? It should be in nM, unit omitted.

See these solved cases before continuing.
CN1CCN(C)CCN(Cc2cc(/C=C/C=C/C3=CC(=C(C#N)C#N)c4ccccc4O3)cc(CN3CCN(C)CCN(C)CC3)c2O)CC1 | 430
CN1CCN(C)CCN(Cc2cc(/C=C/C3=CC(=C(C#N)C#N)c4ccccc4O3)ccc2O)CC1 | 670
CN1CCN(C)CCN(Cc2cc(/C=C/C=C/C3=CC(=C(C#N)C#N)c4ccccc4O3)ccc2O)CC1 | 230

Quick one: Kd for CN1CCN(C)CCN(Cc2cc(/C=C/C3=CC(=C(C#N)C#N)c4ccccc4O3)cc(CN3CCN(C)CCN(C)CC3)c2O)CC1 ?
2880
